Target: full length NS3/4a (Hepatitis C virus genotype 1b (isolate BK) (HCV), UniProt P26663)
Sequence (P26663 1027-1657): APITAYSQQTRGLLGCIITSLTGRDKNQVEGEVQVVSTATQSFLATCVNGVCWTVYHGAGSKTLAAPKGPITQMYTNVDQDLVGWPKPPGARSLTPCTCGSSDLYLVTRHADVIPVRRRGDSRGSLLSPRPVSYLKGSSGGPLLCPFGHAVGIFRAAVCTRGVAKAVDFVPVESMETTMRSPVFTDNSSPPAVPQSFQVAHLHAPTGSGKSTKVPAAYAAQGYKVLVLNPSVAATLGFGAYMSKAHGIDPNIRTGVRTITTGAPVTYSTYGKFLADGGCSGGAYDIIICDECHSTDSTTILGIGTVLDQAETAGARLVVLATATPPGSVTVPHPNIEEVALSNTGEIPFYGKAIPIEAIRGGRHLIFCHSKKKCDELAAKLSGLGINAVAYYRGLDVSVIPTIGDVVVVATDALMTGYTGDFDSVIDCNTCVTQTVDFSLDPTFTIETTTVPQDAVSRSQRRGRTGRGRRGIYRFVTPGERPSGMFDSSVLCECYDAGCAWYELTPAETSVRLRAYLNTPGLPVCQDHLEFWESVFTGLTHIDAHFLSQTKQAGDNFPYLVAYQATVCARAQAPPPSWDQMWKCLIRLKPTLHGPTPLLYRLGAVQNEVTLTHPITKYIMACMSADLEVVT
Assay: NS3 Protease Assay (Example A), FRET-based
Type: biochemical
Conditions: read-out: IC50 against the protease activity of the full length NS3/4a
pIC50: −log10 of the molar value.
Hi there, I'd appreciate the recorded pIC50 for every entry that follows.

Input `[2H]C([2H])([2H])C([2H])([2H])[C@@H](N[C@H](C)CC(N)=O)c1ccc(Cl)c(C(=O)c2ccc3c(c2)OCC(=O)N3)c1F` , output reported pIC50.
5.30 to 6.00

Consider the compound `CC[C@H](N)c1ccc(Cl)c(C(=O)c2ccccc2)c1F` and give its recorded pIC50.
> 6.00

Given the compound `CC[C@@H](N)c1ccc(Cl)c(C(=O)c2ccc(CO)cc2)c1F` , write its reported pIC50.
> 6.00

Specify reported pIC50 for the compound shown: `CC[C@@H](N)c1ccc(Cl)c(C(=O)c2ccncn2)c1F`
5.30 to 6.00

Determine from records and report pIC50 for `CC[C@@H](N[C@@H](C)C(N)=O)c1ccc(Cl)c(C(=O)c2cccnc2)c1F`
5.30 to 6.00

Give pIC50 for the following compound: `CC[C@@H](N)c1ccc(Cl)c(C(=O)c2ccncc2)c1F`
> 6.00

Return value of pIC50 for input `CC[C@H](NC(=N)N)c1ccc(Cl)c(C(=O)c2cccnc2)c1F` , no commentary.
5.30 to 6.00

Give the reported pIC50 for this compound. `CC[C@H](NC(=O)CCN)c1ccc(Cl)c(C(=O)c2cccnc2)c1F`
> 6.00

---

Molecular target: full length NS3/4a (Hepatitis C virus genotype 1b (isolate BK) (HCV), UniProt P26663)
Assay: NS3 Protease Assay (Example A), FRET-based
Assay type: biochemical
Settings: read-out: IC50 against the protease activity of the full length NS3/4a
pIC50: −log10 of the molar value.
For each of the molecules below, state its pIC50.

Find the measured pIC50 of `CC[C@@H](N)c1ccc(Cl)c(C(=O)c2ccc(N)cn2)c1F` with full length NS3/4a (Hepatitis C virus genotype 1b (isolate BK) (HCV), UniProt P26663) as test system.
5.30 to 6.00

Enter measured pIC50, system full length NS3/4a (Hepatitis C virus genotype 1b (isolate BK) (HCV), UniProt P26663), for the molecule shown: `CC[C@@H](N)c1ccc(Cl)c(C(=O)c2cnc(N)cn2)c1F`
5.30 to 6.00

Recall the reported pIC50 of `CC[C@@H](N)c1ccc(Cl)c(C(=O)c2ccc(F)cc2)c1F` on full length NS3/4a (Hepatitis C virus genotype 1b (isolate BK) (HCV), UniProt P26663) and write it down.
> 6.00

Please report pIC50 with full length NS3/4a (Hepatitis C virus genotype 1b (isolate BK) (HCV), UniProt P26663) for item `CC(C)C[C@@H](N[C@@H](C)CC(N)=O)c1ccc(Cl)c(C(=O)c2ccc(N)nc2)c1F` .
5.30 to 6.00

Write down measured pIC50 (full length NS3/4a (Hepatitis C virus genotype 1b (isolate BK) (HCV), UniProt P26663)) for this molecule. `[2H]C([2H])([2H])C([2H])([2H])[C@H](N)c1ccc(Cl)c(C(=O)c2ccccc2)c1F`
> 6.00

Report pIC50 under test system full length NS3/4a (Hepatitis C virus genotype 1b (isolate BK) (HCV), UniProt P26663) for `C[C@@H](CC(N)=O)N[C@@H](c1ccc(Cl)c(C(=O)c2ccc3c(c2)OCC(=O)N3)c1F)C1CC1` .
> 6.00

Specify pIC50 for `CC[C@@H](N[C@H](C)CC(N)=O)c1ccc(Cl)c(C(=O)c2ccncc2)c1F` , system full length NS3/4a (Hepatitis C virus genotype 1b (isolate BK) (HCV), UniProt P26663).
5.30 to 6.00

Param request: pIC50 | system full length NS3/4a (Hepatitis C virus genotype 1b (isolate BK) (HCV), UniProt P26663) | item `Nc1ccc(C(=O)c2c(Cl)ccc([C@H](N)C3CC3)c2F)nc1`
5.30 to 6.00

For full length NS3/4a (Hepatitis C virus genotype 1b (isolate BK) (HCV), UniProt P26663), give the measured pIC50 of the entry `N[C@@H](c1ccc(Cl)c(C(=O)c2ccccc2)c1F)C1CC1`
> 6.00

Specify pIC50 for `N[C@@H](c1ccc(Cl)c(C(=O)c2cccnc2)c1F)C1CC1` , system full length NS3/4a (Hepatitis C virus genotype 1b (isolate BK) (HCV), UniProt P26663).
5.30 to 6.00

Report the value of pIC50 obtained on full length NS3/4a (Hepatitis C virus genotype 1b (isolate BK) (HCV), UniProt P26663) for `CC[C@@H](N)c1ccc(Cl)c(C(=O)c2ccns2)c1F` .
> 6.00

Report value only: pIC50, full length NS3/4a (Hepatitis C virus genotype 1b (isolate BK) (HCV), UniProt P26663), `CC[C@@H](N)c1ccc(Cl)c(C(=O)c2ccc(N)nc2)c1F`
> 6.00

Please look at `CC[C@@H](N)c1ccc(Cl)c(C(=O)c2cc(C)on2)c1F` and tell me its recorded pIC50 on full length NS3/4a (Hepatitis C virus genotype 1b (isolate BK) (HCV), UniProt P26663).
5.30 to 6.00

Specify the recorded pIC50 for `CC[C@@H](N[C@H](C)CC(N)=O)c1ccc(OC)c(C(=O)c2ccc(N)nc2)c1F` , system: full length NS3/4a (Hepatitis C virus genotype 1b (isolate BK) (HCV), UniProt P26663).
5.30 to 6.00

Give pIC50 for this entry on full length NS3/4a (Hepatitis C virus genotype 1b (isolate BK) (HCV), UniProt P26663): `COc1ccc([C@H](N)C2CC2)c(F)c1C(=O)c1cccc(F)c1`
5.30 to 6.00

Recall the reported pIC50 of `CC[C@@H](N)c1ccc(Cl)c(C(=O)c2ccc(NC)nc2)c1F` on full length NS3/4a (Hepatitis C virus genotype 1b (isolate BK) (HCV), UniProt P26663) and write it down.
> 6.00

Report value only: pIC50, full length NS3/4a (Hepatitis C virus genotype 1b (isolate BK) (HCV), UniProt P26663), `N#Cc1ccc(C(=O)c2c(Cl)ccc([C@H](N)C3CC3)c2F)cc1`
> 6.00

Report measured pIC50 on full length NS3/4a (Hepatitis C virus genotype 1b (isolate BK) (HCV), UniProt P26663); entry: `N[C@@H](c1ccc(Cl)c(C(=O)c2ccc(F)cc2)c1F)C1CC1`
> 6.00

// output pIC50; input `CC[C@H](N[C@@H](C)CC(N)=O)c1ccc(Cl)c(C(=O)c2ccccc2)c1F` ; system full length NS3/4a (Hepatitis C virus genotype 1b (isolate BK) (HCV), UniProt P26663)
5.30 to 6.00

State, for full length NS3/4a (Hepatitis C virus genotype 1b (isolate BK) (HCV), UniProt P26663), measured pIC50 of the molecule listed here: `CC[C@@H](N)c1ccc(Cl)c(C(=O)c2cccc(CO)c2)c1F`
> 6.00

Send back full length NS3/4a (Hepatitis C virus genotype 1b (isolate BK) (HCV), UniProt P26663) pIC50 of `CC[C@@H](N)c1ccc(Cl)c(C(=O)c2ccc3c(c2)OCC(=O)N3)c1F` only.
> 6.00

State the measured pIC50 (full length NS3/4a (Hepatitis C virus genotype 1b (isolate BK) (HCV), UniProt P26663)) of `C[C@@H](CC(N)=O)N[C@@H](c1ccc(Cl)c(C(=O)c2ccc(N)c(Cl)c2)c1F)C1CC1`
> 6.00

Give pIC50 for `CC[C@H](NC(=O)CCN)c1ccc(Cl)c(C(=O)c2ccc(N)nc2)c1F` tested on full length NS3/4a (Hepatitis C virus genotype 1b (isolate BK) (HCV), UniProt P26663).
> 6.00

Enter recorded pIC50 with full length NS3/4a (Hepatitis C virus genotype 1b (isolate BK) (HCV), UniProt P26663) for `CC[C@@H](N[C@@H](C)CC(N)=O)c1ccc(Cl)c(C(=O)c2ccc(C(=O)O)cc2)c1F` here.
5.30 to 6.00

Find pIC50 for `N[C@@H](c1ccc(Cl)c(C(=O)c2ccncc2)c1F)C1CC1` on full length NS3/4a (Hepatitis C virus genotype 1b (isolate BK) (HCV), UniProt P26663) and write it down.
> 6.00

State measured pIC50 of the molecule `CC[C@H](NC(=O)C[C@@H](N)C(C)C)c1ccc(Cl)c(C(=O)c2cccnc2)c1F` with full length NS3/4a (Hepatitis C virus genotype 1b (isolate BK) (HCV), UniProt P26663).
> 6.00

With full length NS3/4a (Hepatitis C virus genotype 1b (isolate BK) (HCV), UniProt P26663) as the test system, provide measured pIC50 for this molecule: CC[C@H](NC(=O)C1CCCNC1)c1ccc(Cl)c(C(=O)c2cccnc2)c1F (stereo partly shown)
> 6.00

Give pIC50 only, for `CC[C@@H](N[C@H](C)CC(N)=O)c1ccc(Cl)c(C(=O)c2ccc(-n3cccn3)nc2)c1F` , using full length NS3/4a (Hepatitis C virus genotype 1b (isolate BK) (HCV), UniProt P26663) data.
5.30 to 6.00

// fetch pIC50; item: `CC[C@H](NC(=O)C1=CCNC1)c1ccc(Cl)c(C(=O)c2cccnc2)c1F` ; system: full length NS3/4a (Hepatitis C virus genotype 1b (isolate BK) (HCV), UniProt P26663)
> 6.00

Provide pIC50, system full length NS3/4a (Hepatitis C virus genotype 1b (isolate BK) (HCV), UniProt P26663), entry `CC[C@@H](N)c1ccc(Cl)c(C(=O)c2ccc(Cl)nc2)c1F`
> 6.00

Give measured pIC50 for `CC[C@@H](N[C@H](C)CC(N)=O)c1ccc(Cl)c(C(=O)c2ccc(N)c(C#N)c2)c1F` (full length NS3/4a (Hepatitis C virus genotype 1b (isolate BK) (HCV), UniProt P26663)).
> 6.00

Jot down pIC50 (full length NS3/4a (Hepatitis C virus genotype 1b (isolate BK) (HCV), UniProt P26663)) of `CC[C@@H](N[C@H](C)CC(N)=O)c1ccc(Cl)c(C(=O)c2cc(C)on2)c1F` .
5.30 to 6.00

Please look at `C[C@H](CC(N)=O)N[C@@H](c1ccc(Cl)c(C(=O)c2ccc(F)cc2)c1F)C1CC1` and tell me its recorded pIC50 on full length NS3/4a (Hepatitis C virus genotype 1b (isolate BK) (HCV), UniProt P26663).
5.30 to 6.00

Look up full length NS3/4a (Hepatitis C virus genotype 1b (isolate BK) (HCV), UniProt P26663) data: pIC50 of `CC[C@@H](N[C@@H](C)CC(N)=O)c1ccc(Cl)c(C(=O)c2ccc(OC)c(C#N)c2)c1F` , then report it.
5.30 to 6.00
